Below, each of the molecules is paired with its reported melting point value.

// worked examples, melting point included
In [3]: df
Out[3]:
                                   molecule         result
0  CC1CC(C(=O)O)CCO1 (configuration not stated)    44 to 46 °C
1  Cc1ccccc1C(=O)NC(CC(C)C)C(=O)O (configuration not stated)  111 to 113 °C
2                 Cc1cccc(C(=O)N2CCSCC2)c1N  113 to 115 °C
3  O=C(O)c1ccc(N2CCCCC2)c(S(=O)(=O)N2CCCCC2)c1  196 to 198 °C
4                         NNC(=S)Nc1ccccc1F  159 to 161 °C
5                 Cc1n[nH]c(=O)c(C(=O)O)c1C  179 to 181 °C
6          Cc1ccc(-c2ccc(C(=O)O)c(F)c2)cc1C  213 to 215 °C
7           O=S(=O)(Cl)c1c[nH]c2nccc(Br)c12  177 to 179 °C

Okay, now this molecule:
Which melting point reading was recorded for the molecule CCOC(=O)c1c(N)sc2c1CCN(C(C)C)C2 ?
81 to 83 °C

---

# reported melting point; entries follow

>>> df
                                   compound        measure         result
0     Cc1cc(F)c([N+](=O)[O-])cc1S(=O)(=O)Cl  melting point    66 to 68 °C
1  CC(C)(C)OC(=O)NC(CC#N)c1ccccc1 (stereo unspecified)  melting point  104 to 106 °C
2                       O=C(O)CSc1ccc(O)cc1  melting point  141 to 143 °C
3        Cc1cc(C(F)(F)F)c(C#N)c(SCC(=O)O)n1  melting point  132 to 134 °C
4               Ic1ccc(OCc2ccc3ncccc3c2)cc1  melting point  161 to 163 °C

In the following, a different compound is considered.
Reported melting point for O=C(O)c1ccnc(Cl)c1F : what is it?
194 to 196 °C

---

measure: melting point

Previously resolved entries follow.
In [3]: df
Out[3]:
                     cpd_smiles         result
0     ClC(Cl)c1nnc(-c2ccccc2)o1    82 to 84 °C
1            Cc1cccc(C(N)=O)c1N  145 to 147 °C
2  N#Cc1cccc(NC(=O)c2ccccc2F)c1  132 to 134 °C
3          NCc1ccnc(-n2cccn2)c1    44 to 46 °C

Let's switch to this molecule now.
# melting point lookup, item Clc1ccc(-c2n[nH]cc2Br)cc1
140 to 142 °C

---

# Lookup of reported melting point keyed by entry

>>> print(df.to_string())
                                   compound       result
0  CC(C)Cn1cnnc1C1CCCN1 (centres undefined)  54 to 56 °C

Please give the measured melting point for this compound: O/N=C1\CCN2CCCCC12 (centres undefined)
96 to 98 °C

Now try O=C1CCC(O)(c2cccc(F)c2)CC1 .
111 to 113 °C

Field entry: CC(Oc1cccc(O)c1)C(N)=O (centres undefined)
129 to 131 °C

// same read-out, input: NC(=O)NCC1CCCCC1
168 to 170 °C

Can you handle O=[N+]([O-])c1ccc(CBr)c(F)c1 next?
59 to 61 °C

Please answer likewise for COc1cc(S(=O)(=O)Cl)ccc1Br
65 to 67 °C

Same question, NNC(=O)NC1CC1 this time
64 to 66 °C

Same lookup for Cc1ccc(-c2cncc(C(=O)O)c2)cc1 , please.
266 to 268 °C

Now give it for CC(C)CNC(=O)c1cc(Cl)ccc1N too.
137 to 139 °C

Further, for Cn1nc(C(F)(F)F)c(C(=O)O)c1C(F)(F)F ?
127 to 129 °C

Also need Cc1cc(COc2ccc(C(=O)O)cc2Br)on1 , thanks.
209 to 211 °C

Follow-up item: c1ccc(C2NCCn3cccc32)cc1 (centres undefined)
72 to 74 °C

Would you kindly repeat that for Nc1ncc(-c2ccccc2F)s1 ?
149 to 151 °C

Another compound to check: Cc1cc(C(=O)CCl)c(C)n1NC(=O)c1ccccc1
141 to 143 °C

Thanks! And O=C(O)c1ccc(NS(=O)(=O)c2ccc3c(c2)OCCO3)cc1 ?
94 to 97 °C

Also, Cc1cc(N2CCN(C)CC2)ccc1N please.
100 to 102 °C

Also CCC(CC(=O)O)c1ccccc1 (centres undefined) ?
59 to 61 °C

# iterate: COC(=O)c1ccc(Cl)c(S(=O)(=O)Cl)c1
103 to 105 °C

Another compound: Nc1ccc(Sc2cccs2)cn1
77 to 79 °C

Another compound: CNS(=O)(=O)c1ccc(S(=O)(=O)Cl)cc1
99 to 101 °C

And the next one, CCOc1cc(C(=O)O)ccn1 ?
171 to 173 °C

Also, Cc1n[nH]c(-c2ccc(N)cc2)n1 please.
179 to 181 °C

One more compound: N#CCC(=O)c1ccc(Br)s1
143 to 145 °C

---

Residues, ends and D or L forms follow the SMILES beside them. *: point of attachment. Boc = CC(C)(C)OC(=O)*
Listed molecules paired with reported melting point

Worked cases, melting point given:
>>> print(df.to_string())
                                   molecule         result
0      NS(=O)(=O)c1cccc(NC(=O)c2ccccc2Cl)c1    93 to 96 °C
1                       Cc1ccc(-n2cccc2)cc1    82 to 84 °C
2                  Cc1noc2nc3c(cc12)CCOC3=O  224 to 226 °C
3  Cc1cc(Oc2ccccc2)c2cc([N+](=O)[O-])ccc2n1  167 to 169 °C
4                       Cn1cccc(C(=O)O)c1=O  185 to 187 °C

Look up melting point: O=C(O)c1c2c(nc3ccccc13)C(=Cc1ccccc1)CC2
279 to 281 °C

Now consider COc1cccc(NC(=S)NN)c1 .
168 to 170 °C

Next molecule: CC(C)(C)OC(=O)NCC(=O)NCC(=O)O (Boc-Gly-Gly-OH)
119 to 121 °C

Cool, now CN(C)C(=O)c1cccc(Br)c1
52 to 54 °C

What do you get for CN1CC(C(=O)O)Cc2ccccc21 (stereo not given) ?
209 to 211 °C

Also check Cc1cc(Br)ccc1OCc1ccccc1
56 to 58 °C

Query COc1ccc(O)c(C(=O)c2ccccc2)c1 next
81 to 83 °C

Ok, now COc1ccc(Nc2nc3cc(S(=O)(=O)N4CCOCC4)ccc3o2)cc1
219 to 221 °C

How about this molecule: CCCc1noc2nc(-c3ccco3)cc(C(=O)O)c12
204 to 206 °C

Then what about the molecule O=S1(=O)CCC(Cc2nnc(S)o2)C1 (stereo not given) ?
160 to 162 °C

Okay, and Cc1ccc2ncnc(Cl)c2c1 ?
105 to 107 °C

What about this molecule? CC(=O)CCc1ccc(O)c(F)c1
88 to 90 °C

Proceed to NS(=O)(=O)c1ccc(F)c(C(=O)O)c1
186 to 188 °C

Then what about the molecule Cc1cnn(-c2ccc(C(=O)O)cc2)c1 ?
240 to 242 °C

Same lookup for O=C(O)CCc1nc(-c2ncccn2)no1 , please.
202 to 204 °C

Same again, this time with N#CC1(c2ccc(C(=O)O)cc2)CC1
219 to 221 °C

Please do the same for O=C(O)c1occc1CS(=O)(=O)c1ccc(Br)cc1 as well.
211 to 213 °C

Also check CC1(O)CCc2ccccc2C1 (stereo not given)
39 to 41 °C

Could you do the same for Nc1cccc(-c2nnc[nH]2)c1 , please?
182 to 184 °C

Do the same for N#Cc1cccc(NC(=O)CCl)c1 please
143 to 145 °C

Now the molecule Cc1sc2ncn(CCC(=O)O)c(=O)c2c1C
194 to 196 °C

---

List of melting point values.

See these solved cases before continuing.
>>> print(df.to_string())
                                   compound        measure         result
0  O=C(O)CCNS(=O)(=O)c1ccc([N+](=O)[O-])cc1  melting point  150 to 152 °C
1               Cc1cc(C(=O)O)c(C)n1-c1nccs1  melting point  173 to 175 °C
2    COc1ccc(NC(=O)CCl)cc1S(=O)(=O)N1CCCCC1  melting point  142 to 144 °C

Fill in: melting point of O=C(O)CS(=O)(=O)Cc1cccc(Br)c1 is ___
173 to 175 °C

Another compound to look at: CC(C)(C)OC(=O)N1CC(OCCC(=O)O)C1
52 to 54 °C

Moving on to CCc1cccc(N2CC(C(=O)O)CC2=O)c1 (stereo unspecified)
120 to 122 °C
